Test system: Plasmodium berghei
Assay: Screen against P. berghei liver stage (PbLuc), transformed with Luciferase, at 10uM
Format: functional, HepG2
Settings: tested at 10 uM
In all, about 69,000 compounds went through this assay and about 8,600 (12%) showed an effect of 50% or more. The sample holds strong results, similar compounds and a random draw of the others, so the mix is not that of the screen.
measuredEndpoint: INHIBITION (%)

1. NC(=O)C(NC(=O)c1cc(Cl)c[nH]1)c1ccccc1 (stereo unspecified) ... 52.8
2. Cc1ccc(NCCNC(=O)C2Cc3cc(C)c(C)cc3O2)nn1 (stereo unspecified) ... 55
3. O=C(O)c1ccc(S(=O)(=O)Nc2cnn(CC(F)(F)F)c2)cc1 ... 72.8
4. NC(=O)C(NC(=O)c1cc(Br)c[nH]1)c1ccccc1 (stereo unspecified) ... 34.4
5. O=C(O)CCc1ccc(S(=O)(=O)Nc2cnn(CC3CC3)c2)cc1 ... 5.51
6. CCn1cc(NC(=O)C2CCN(Cc3noc(C4CC4)n3)CC2)cn1 ... 18.2
7. Cc1cc(C)c(C(=O)N[C@H](C(N)=O)c2ccccc2)c(=O)[nH]1 ... -31.4
8. CCOCC1CN(C(=O)c2ccoc2C)Cc2cnn(C)c21 (stereo unspecified) ... 23.3
9. Cc1cc2c(cc1C)OC(C(=O)NCCNC(=O)C1CCCC1)C2 (stereo unspecified) ... -35.1
10. O=C(NCCn1nc(C2CCNC2)c2cccnc21)c1ccccn1 (stereo unspecified) ... 3.91
11. O=C(NCCNC(=O)C1Cc2cc(F)ccc2O1)C1CCCCC1 (stereo unspecified) ... -0.529

====

System: Plasmodium berghei
Assay: Screen against P. berghei liver stage (PbLuc), transformed with Luciferase, at 10uM
Assay type: functional, HepG2
Details: tested at 10 uM
Among all 69,000 compounds or so, about 8,600 (12%) showed an effect of 50% or more. The sample holds strong results, similar compounds and a random draw of the others, so the mix is not that of the screen.
Each record here notes measured INHIBITION.
measuredEndpoint: INHIBITION (%)

1. CS(=O)(=O)N1C[C@H]2CCC[C@@]2(COCC2CCOCC2)C1 ... 5.36
2. O=C(c1ccncc1Cl)N1CCN(Cc2ccco2)C(CCO)C1 (centres undefined) ... 16.2
3. O=C(c1ccc(NC2CC2)nc1)N1CCCC(n2ccnc2)C1 (centres undefined) ... 31.32
4. COCCN1CCC(CNC(=O)C2(c3ccccc3)CCC2)C1 (centres undefined) ... 45.7
5. CN(C)S(=O)(=O)N1C[C@H]2CCC[C@@]2(COCC2CCOCC2)C1 ... 40.8
6. Cc1ccc(-n2ncc(C(=O)NC3CC(C)(C)NC(C)(C)C3)c2N)cc1 ... -21.1
7. O=C(NCC1CCN(CCc2ccccc2)C1)c1cc(Cl)c[nH]1 (centres undefined) ... 72.3
8. COCCN1CCC(CNC(=O)C2(c3ccc(Br)cc3)CCCC2)C1 (centres undefined) ... 52.5
9. CCc1c(C(=O)NC2CCS(=O)(=O)C2)cnn1-c1ccc(C)cc1 (centres undefined) ... -17
10. CCOCC1CN(S(=O)(=O)N(C)C)Cc2cnn(C)c21 (centres undefined) ... 33.5
11. CC(Cn1cccn1)NC(=O)NCc1ccc(C(N)=O)cc1 (centres undefined) ... -98.8
12. COCCN1CCC(CNC(=O)Nc2ccc(F)c(Cl)c2)C1 (centres undefined) ... 7.44
13. O=C(NCC1CCN(CCc2ccccc2)C1)c1c(F)cccc1F (centres undefined) ... 45.1
14. COc1ccccc1C(=O)N1CC(=O)N(CC2CC2)CC(O)C1 (centres undefined) ... 34.3
15. COCCN1CCC(CNC(=O)C2(c3ccc(F)cc3)CCC2)CC1 ... 8.64
16. Cn1ccc(C(=O)NCCOc2ccc3c(c2)OCO3)cc1=O ... -3.54
17. Cc1ccc(-n2ncc(C(=O)NC3CCCCC3)c2N)cc1 ... 66.5
18. Cc1ccn(CCC(=O)NC(C)Cc2ccco2)n1 (centres undefined) ... 24.5
19. Cc1csc(Nc2cc(C3CCCCN3C)nc(C)n2)n1 (centres undefined) ... 16.5
20. Cc1noc(C)c1CCc1nc(C2CCOC2)no1 (centres undefined) ... -94.3
21. Cc1cnn(CC2CN(CC(=O)N(C)Cc3ccccc3)CCO2)c1 (centres undefined) ... 13.3
22. CN(C)S(=O)(=O)N1C[C@H]2CCC[C@@]2(COCC2CC2)C1 ... 63
23. COCCN1CCC(CNC(=O)Nc2ccc(SC(F)(F)F)cc2)C1 (centres undefined) ... 66.5
24. Cc1cc(N(C)C)nc(C2CCNC2)n1 (centres undefined) ... 35

====

Measured INHIBITION, listed per entry for reference.
System: Plasmodium berghei
Assay: Screen against P. berghei liver stage (PbLuc), transformed with Luciferase, at 10uM
Assay type: functional, HepG2
Settings: tested at 10 uM
The campaign covered roughly 69,000 compounds. About 8,600 (12%) showed an effect of 50% or more. The full list was thinned out, with strong results kept by preference.
measuredEndpoint: INHIBITION (%)

1) COc1ccc(-c2nnc(SC(C)C(N)=O)[nH]2)c(OC)c1 (stereo not drawn) ... 18.3
2) Cc1ccc(-c2noc(CN3CCn4c(nnc4C4CC4)C3)n2)cc1 ... -32.345
3) COc1ccccc1C1SCC(=O)Nc2c1c(=O)[nH]n2C1CCOCC1 (stereo not drawn) ... 39.3
4) O=C1CSC(c2ccc(F)c(Cl)c2)c2c(n(C3CCOCC3)[nH]c2=O)N1 (stereo not drawn) ... 72.8
5) O=C(Nc1cccnc1)C1CN(C(=O)c2ccc3c(c2)OCO3)C1 ... 34.6
6) O=C1CSC(c2ccc(O)c(Cl)c2)c2c(n(C3CCOCC3)[nH]c2=O)N1 (stereo not drawn) ... 15
7) O=C(c1ccc(=O)[nH]n1)N1CCCC(O)(CN2CCC(F)(F)CC2)CC1 (stereo not drawn) ... -18.8
8) CCCc1ccc(S(=O)(=O)NC(=O)CCC2CCCO2)cc1 (stereo not drawn) ... 4.71
9) COc1ccc2nnc(C(=O)NC3CCCC3)nc2c1 ... -65.8
10) Cc1cccc(-c2noc(CN3CCn4c(nnc4C4CC4)C3)n2)c1 ... -14.8
11) Cc1nc2cc(C(=O)N3CCCC(n4ccnc4)C3)ccc2n1C (stereo not drawn) ... 33.3
12) O=C1CSC(c2ccc(Cl)cc2Cl)c2c(n(C3CCOCC3)[nH]c2=O)N1 (stereo not drawn) ... 54.5
13) CC1=Nc2c(c(=O)[nH]n2C2CCOCC2)C(c2cccc(Br)c2)S1 (stereo not drawn) ... 3.95
14) c1nc(N2CCOCC2)sc1-c1cncn1CCCN1CCCCC1 ... 8.32
15) Cc1cnn(CCCNC(=O)CCC2CCCCN2C)c1 (stereo not drawn) ... 35.1
16) Cc1ccc(-c2nnc(CN3CCn4c(nnc4C4CC4)C3)o2)cc1 ... 52.3
17) COc1ccc(CN2CCCC2)cc1Oc1ccc2c(c1)CC(CN)O2 (stereo not drawn) ... -27
18) O=S(=O)(NCCC(O)c1ccoc1)c1ccc(Cl)s1 (stereo not drawn) ... -5.22
19) COc1ccc(-c2ccccc2CN)c(OC)c1 ... -58
20) Cc1ccc(-c2nc(CN3CCn4c(nnc4C4CC4)C3)co2)cc1 ... -25.9
21) COc1cc(CN2CCCC2)ccc1Oc1ccc2c(c1)CC(CN)O2 (stereo not drawn) ... 69
22) Cc1cc(C)n(CC(C)NC(=O)NCc2c(C)cc(C)[nH]c2=O)n1 (stereo not drawn) ... 50.8
23) COc1ccc(-c2nnc(SC(C)C(=O)NCC(C)C)[nH]2)c(OC)c1 (stereo not drawn) ... 64

====

In this section we review reported INHIBITION values for a set of compounds.
Tested on: Plasmodium berghei
Test: Screen against P. berghei liver stage (PbLuc), transformed with Luciferase, at 10uM
Type: functional, HepG2
Conditions: tested at 10 uM
Screen size: about 69,000 compounds; about 8,600 (12%) showed an effect of 50% or more. Many of the other results were omitted from the sample, so strong results are more common in it than they were.
measuredEndpoint: INHIBITION (%)

1) CCc1nccn1CCC(=O)N1CC(=O)N(c2ccccc2C)CC1C (stereo unspecified) ... 49.9
2) Cc1nn(C)c(C)c1-c1cnc(C2CCCN(C)C2)cn1 (stereo unspecified) ... -28.6
3) Cc1csc(NC(=O)c2cnc(C3CCCN3)cn2)n1 (stereo unspecified) ... 80.9
4) CCC1=N[C@@]2(CC[C@@H]3CN(CC(C)C)C[C@@H]32)C(=O)N1 ... 24.9
5) Cc1csc(NC(=O)c2cnc(C3CCCN(C)C3)cn2)n1 (stereo unspecified) ... 71.3
6) CC(C)c1cc(N(C)Cc2noc(C3CCCC3)n2)n2nccc2n1 ... 46.4
7) O=c1n(CCNCc2cccc3ccccc23)nc2ccccn12 ... 28.8
8) CCc1nccn1CC(=O)N1C[C@@H]2CC[C@H]1CN(C(=O)N(C)C)C2 ... -19.7
9) COc1c(C2CCCN2CC(=O)Nc2nc(C)cs2)c(C)nn1C (stereo unspecified) ... 31.9
10) COc1cccc(CN2CC(=O)N(c3ccccc3C)CC2C)c1OC (stereo unspecified) ... 17.8
11) CCNC(=O)NCCCn1nc2ccccn2c1=O ... -12.2
